Values were extracted from patent US11052060B2.

- tgt: α-gliadin/DQ8 (Homo sapiens, UniProt P01909+P01920)
- Sequence (P01920 33-261 limits assumed, other chains not shown): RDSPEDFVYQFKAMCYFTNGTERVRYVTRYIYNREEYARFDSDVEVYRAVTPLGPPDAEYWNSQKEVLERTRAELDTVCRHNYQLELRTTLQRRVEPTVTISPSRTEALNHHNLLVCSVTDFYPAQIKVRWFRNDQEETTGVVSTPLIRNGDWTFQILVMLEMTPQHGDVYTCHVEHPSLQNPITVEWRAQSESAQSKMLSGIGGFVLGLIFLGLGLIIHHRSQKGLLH
- assay_notes: Inhibition of DQ8 antigen presentation to gliadin-responsive CD4 TCR transductant (489), secreted IL-2 by ELISA
- condition_description: 489 TCR transductant; HLA-DQ8 antigen presenting cells with α-gliadin peptide; secreted IL-2
measured_parameter: IC50

>>> df
                                   compound                                       tgt    value
0  CCOC(=O)C(C)(N)Cc1ccc(O)c(O)c1 (centres unmarked)  α-gliadin/DQ8 (Homo sapiens, UniProt P01909+P01920)   7.8 µM
1  C[C@@](N)(Cc1ccc(O)c(O)c1)C(=O)O (stereo in doubt)  α-gliadin/DQ8 (Homo sapiens, UniProt P01909+P01920)  17.7 µM

* * *

- tgt: insulin/DQ8 (Homo sapiens, UniProt P01909+P01920)
- assay_notes: Inhibition of DQ8 antigen presentation to insulin-responsive CD4 TCR transductant (Clone 5), secreted IL-2 by ELISA
- condition_description: Clone 5 TCR transductant; HLA-DQ8 antigen presenting cells with insulin peptide; secreted IL-2
Reported IC50 values follow for various compounds
measured_parameter: IC50 (µM)

                                   compound  value_unit  value
0  CCOC(=O)C(C)(N)Cc1ccc(O)c(O)c1 (centres unmarked)          µM    5.8
1  C[C@@](N)(Cc1ccc(O)c(O)c1)C(=O)O (stereo in doubt)          µM    3.4
